System: NCI-H522 lung
Protocol Text: NCI tumour cell line growth inhibition, 48 h
Experimental Endpoint: TGI

Request: Lookup: TGI / NCI-H522 lung / O=C1C2Cc3ccccc3CN2C(=O)N1CN1CCCCC1 (stereo unspecified)
Result: > 100 µM

Request: Lookup: TGI / NCI-H522 lung / O=C(NC1CCCCC1)N1CCNC1=S
Result: > 100 µM

Request: Lookup: TGI / NCI-H522 lung / CN(N=O)N1C(=O)SCC(c2ccccc2)(c2ccccc2)C1=O
Result: 91.1 µM

Request: Lookup: TGI / NCI-H522 lung / Cc1ccc(O)c(C(=O)/C=C/c2ccccc2)c1
Result: > 100 µM

Request: Lookup: TGI / NCI-H522 lung / O=C(Nc1ccn(C2CCC(COC(c3ccccc3)(c3ccccc3)c3ccccc3)O2)c(=O)n1)c1ccccc1 (stereo unspecified)
Result: 19.2 µM

Request: Lookup: TGI / NCI-H522 lung / CC(C)(C)c1cc([Si](C)(C)C)c(C#N)c([Si](C)(C)C)c1
Result: > 100 µM
